B1: RAB11B (parent)
chain: AVPTDEARAFAEKNNLSFIETSAL

variants of: B1; test: protein stability index of a GFP-peptide fusion (GPS, HEK-293T) (PSI 1-6); higher = more stable; conditions: c terminus: a fixed tail appended;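 note: lentivirally expressed fusions sorted by FACS into six bins by GFP to DsRed ratio, PSI derived from sequencing read proportions per bin multiplied by bin number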
# protein stability index >= 3 gives Satisfied, anything below gives Not satisfied

Is the recorded value of protein stability index equal to or greater than 3 for this variant? S17V
Satisfied

Record T21N ; criterion: protein stability index no lower than 3. Met?
Not satisfied

Dear colleague, could you confirm whether P3Y has protein stability index at or above 3?
Not satisfied

Is protein stability index at least 3? Consider L16F
Satisfied

Please tell me: is the variant T4I at or over 3 in terms of protein stability index?
Not satisfied

Is it the case that K13S has protein stability index reaching or exceeding 3?
Not satisfied

Quick check: does K13H have protein stability index greater than or equal to 3?
Not satisfied

Please indicate if the recorded protein stability index for T21G meets or exceeds 3.
Not satisfied

Tell me whether protein stability index is at least 3 here: E20H
Not satisfied

Decide: is the reported value of protein stability index for T4P equal to or greater than 3?
Not satisfied

Does the reported protein stability index for F18D fall at or above the 3 mark?
Satisfied

Item P3Q with protein stability index of 3 or above?
Satisfied

# bool: protein stability index of A1F >= 3
Not satisfied

Check if protein stability index >= 3 (inclusive). Item: L16C
Satisfied

Quick check: does E20G have protein stability index greater than or equal to 3?
Not satisfied

# bool: protein stability index of E20L >= 3
Not satisfied

Tell me whether protein stability index is at least 3 here: L16V
Satisfied

Is it the case that L16W has protein stability index reaching or exceeding 3?
Satisfied

Answer whether protein stability index of A1H is greater than or equal to 3.
Not satisfied

Tell me whether protein stability index is at least 3 here: T4W
Not satisfied

Quick check: does E20M have protein stability index greater than or equal to 3?
Not satisfied

Exam item: decide whether the reported protein stability index for T21D is at least 3.
Satisfied

Would you say N14H shows protein stability index at minimum 3?
Not satisfied

Hello, I need to know if F10T has measured protein stability index not below 3. Thanks!
Satisfied

Is it the case that L24D has protein stability index reaching or exceeding 3?
Satisfied

State whether the measured protein stability index reaches 3, counting equality as reaching it, for V2Q
Not satisfied

Hi, just wondering whether T4N shows protein stability index of 3 or higher.
Not satisfied
